# System Name: neutral endopeptidase (NEP, EC 3.4.24.11) (Homo sapiens, UniProt P08473)
# Sequence (P08473 whole entry, species assumed): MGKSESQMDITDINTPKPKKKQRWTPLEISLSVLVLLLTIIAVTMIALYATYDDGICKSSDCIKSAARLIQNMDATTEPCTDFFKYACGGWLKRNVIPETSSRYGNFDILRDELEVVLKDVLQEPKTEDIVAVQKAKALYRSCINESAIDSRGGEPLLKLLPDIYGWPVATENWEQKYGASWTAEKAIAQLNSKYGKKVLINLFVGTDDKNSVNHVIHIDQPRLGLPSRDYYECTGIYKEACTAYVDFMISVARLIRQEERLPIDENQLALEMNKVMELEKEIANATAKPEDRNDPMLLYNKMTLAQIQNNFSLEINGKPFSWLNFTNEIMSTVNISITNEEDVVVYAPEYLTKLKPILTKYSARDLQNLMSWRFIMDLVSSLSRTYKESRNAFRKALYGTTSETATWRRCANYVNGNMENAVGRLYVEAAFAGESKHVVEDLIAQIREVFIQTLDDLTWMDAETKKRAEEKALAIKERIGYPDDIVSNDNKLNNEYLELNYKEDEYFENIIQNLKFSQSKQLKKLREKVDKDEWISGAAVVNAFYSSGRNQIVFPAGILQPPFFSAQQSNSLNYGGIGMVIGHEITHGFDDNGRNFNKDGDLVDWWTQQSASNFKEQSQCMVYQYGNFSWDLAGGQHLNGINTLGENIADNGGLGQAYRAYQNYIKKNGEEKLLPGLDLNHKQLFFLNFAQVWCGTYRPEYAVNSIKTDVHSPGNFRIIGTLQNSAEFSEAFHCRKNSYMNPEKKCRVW
# Assay Procedure: NEP inhibition in vitro (IC50)
# Type: biochemical
Assay Metric: IC50 (nM)
All answers are understood in nM, so give the number only.

>>> numeric_readout("CN(C)S(=O)(=O)N[C@@H](CCCCN)C(=O)NC[C@H](CC1(C(=O)N[C@@H](Cc2ccc(O)cc2)C(=O)O)CCCC1)C(=O)O")
32
>>> numeric_readout("CN(C)C(=O)N[C@@H](CCCCNC(=O)OCc1ccccc1)C(=O)NC[C@H](CC1(C(=O)N[C@@H](Cc2ccc(O)cc2)C(=O)O)CCCC1)C(=O)O")
2
>>> numeric_readout("CN(C)S(=O)(=O)N[C@@H](CCCCNC(=O)OCc1ccccc1)C(=O)NC[C@H](CC1(C(=O)N[C@@H](Cc2ccc(O)cc2)C(=O)O)CCCC1)C(=O)O")
1

What does the data say about its IC50? Entry: COC(=O)N[C@@H](CCCCN)C(=O)NC[C@H](CC1(C(=O)N[C@@H](Cc2ccc(O)cc2)C(=O)O)CCCC1)C(=O)O
33

* * *

Catalogue of compounds with associated IC50
# System Name: neutral endopeptidase (NEP, EC 3.4.24.11) (Homo sapiens, UniProt P08473)
# Assay Procedure: NEP inhibition in vitro (IC50)
# Assay type: biochemical
Field: value (include unit after the number)

See these solved cases before continuing.
>>> result("NCCCC[C@H](NC(=O)N1CCOCC1)C(=O)NC[C@H](CC1(C(=O)N[C@@H](Cc2ccc(O)cc2)C(=O)O)CCCC1)C(=O)O [NH2 C(O) drawing 39]")
"9 nM"
>>> result("CN(C)C(=O)N[C@@H](CCCCN)C(=O)NC[C@H](CC1(C(=O)N[C@@H](Cc2ccc(O)cc2)C(=O)O)CCCC1)C(=O)O [NH2 C(O) (CH3)2 NH]")
"1 nM"
>>> result("CS(=O)(=O)N(CCCN)CC(=O)NC[C@H](CC1(C(=O)N[C@@H](Cc2ccc(O)cc2)C(=O)O)CCCC1)C(=O)O [NH2 SO2 CH3]")
"1 nM"
>>> result("O=C(NCCCC[C@H](NC(=O)N1CCOCC1)C(=O)NC[C@H](CC1(C(=O)N[C@@H](Cc2ccc(O)cc2)C(=O)O)CCCC1)C(=O)O)OCc1ccccc1 [CbzNH C(O) drawing 38]")
"2 nM"

IC50 lookup needed for COC(=O)N[C@@H](CCCCNC(=O)OCc1ccccc1)C(=O)NC[C@H](CC1(C(=O)N[C@@H](Cc2ccc(O)cc2)C(=O)O)CCCC1)C(=O)O [CbzNH C(O) CH3 O] , thanks.
8 nM

What IC50 value was documented for this compound, CS(=O)(=O)N(CCCNC(=O)OCc1ccccc1)CC(=O)NC[C@H](CC1(C(=O)N[C@@H](Cc2ccc(O)cc2)C(=O)O)CCCC1)C(=O)O [CbzNH SO2 CH3] ?
2 nM

* * *

# System Name: angiotensin converting enzyme (ACE) (Homo sapiens)
# Sequence (P12821 30-1306, species assumed): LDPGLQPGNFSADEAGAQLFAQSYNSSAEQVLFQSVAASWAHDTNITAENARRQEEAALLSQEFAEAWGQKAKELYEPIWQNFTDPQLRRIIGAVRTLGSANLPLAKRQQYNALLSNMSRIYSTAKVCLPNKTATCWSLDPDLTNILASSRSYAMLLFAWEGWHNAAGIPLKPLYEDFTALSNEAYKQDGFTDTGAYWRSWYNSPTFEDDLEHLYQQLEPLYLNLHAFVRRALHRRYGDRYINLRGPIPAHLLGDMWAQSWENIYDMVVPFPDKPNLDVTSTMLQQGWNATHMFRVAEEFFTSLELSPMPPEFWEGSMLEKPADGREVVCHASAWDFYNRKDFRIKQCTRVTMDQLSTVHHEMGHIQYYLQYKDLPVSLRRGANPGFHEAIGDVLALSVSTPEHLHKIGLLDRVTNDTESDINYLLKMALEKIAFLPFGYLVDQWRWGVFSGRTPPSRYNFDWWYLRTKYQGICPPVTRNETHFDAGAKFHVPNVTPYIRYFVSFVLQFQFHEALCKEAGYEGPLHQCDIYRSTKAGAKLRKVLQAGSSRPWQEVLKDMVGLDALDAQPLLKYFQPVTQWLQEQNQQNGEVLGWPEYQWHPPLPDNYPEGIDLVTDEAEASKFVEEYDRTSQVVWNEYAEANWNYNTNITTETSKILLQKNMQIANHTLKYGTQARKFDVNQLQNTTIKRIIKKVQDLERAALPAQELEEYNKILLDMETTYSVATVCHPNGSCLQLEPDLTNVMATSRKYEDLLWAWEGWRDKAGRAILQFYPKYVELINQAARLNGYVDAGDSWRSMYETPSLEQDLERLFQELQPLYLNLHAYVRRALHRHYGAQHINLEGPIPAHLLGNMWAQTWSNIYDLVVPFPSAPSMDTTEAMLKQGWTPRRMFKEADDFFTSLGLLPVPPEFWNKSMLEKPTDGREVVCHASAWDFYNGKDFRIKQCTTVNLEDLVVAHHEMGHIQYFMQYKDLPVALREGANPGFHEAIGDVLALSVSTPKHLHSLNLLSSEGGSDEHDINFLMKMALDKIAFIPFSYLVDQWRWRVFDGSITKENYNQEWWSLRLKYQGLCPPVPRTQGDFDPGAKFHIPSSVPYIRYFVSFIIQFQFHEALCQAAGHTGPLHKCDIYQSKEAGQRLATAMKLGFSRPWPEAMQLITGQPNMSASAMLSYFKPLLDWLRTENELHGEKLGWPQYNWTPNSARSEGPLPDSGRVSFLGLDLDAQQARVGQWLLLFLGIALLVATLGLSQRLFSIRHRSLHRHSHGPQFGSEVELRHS
# Assay Procedure: ACE inhibition in vitro (IC50)
# Assay type: biochemical
Assay Metric: IC50 (nM)
// return numeric value only (unit: nM, not printed)

Consider the following illustrative entries.
>>> numeric_readout("NCCCC[C@H](NC(=O)N1CCOCC1)C(=O)NC[C@H](CC1(C(=O)N[C@@H](Cc2ccc(O)cc2)C(=O)O)CCCC1)C(=O)O [NH2 C(O) drawing 39]")
8
>>> numeric_readout("COC(=O)N[C@@H](CCCCN)C(=O)NC[C@H](CC1(C(=O)N[C@@H](Cc2ccc(O)cc2)C(=O)O)CCCC1)C(=O)O")
60
>>> numeric_readout("CN(C)C(=O)N[C@@H](CCCCNC(=O)OCc1ccccc1)C(=O)NC[C@H](CC1(C(=O)N[C@@H](Cc2ccc(O)cc2)C(=O)O)CCCC1)C(=O)O")
450

// next item, IC50 requested
Please give the measured IC50 for this compound: CS(=O)(=O)N(CCCNC(=O)OCc1ccccc1)CC(=O)NC[C@H](CC1(C(=O)N[C@@H](Cc2ccc(O)cc2)C(=O)O)CCCC1)C(=O)O
40
